Data origin: patent US9458172B2

Biological target: UniProtKB P43490
Experiment: Biochemical Inhibition Assay (NAMPT enzymatic reaction, NMN quantified by mass spectrometry)
Settings: 33 nM recombinant His-tagged NAMPT, 1 μM NAM, 30 min at rt
measure-name: IC50 (nM)

Sample records with IC50:
Lab note: compound O=C(NCc1ccc(S(=O)(=O)c2cccc(N3CCOCC3)c2)cn1)c1ccc2nccn2c1 [Example 154] tested on UniProtKB P43490; recorded IC50 was 39.8

Lab note: compound O=C(NCc1ccc([S+]([O-])c2cc(F)cc(F)c2)cn1)c1ccc2nccn2c1 (racemic) [Example 58] tested on UniProtKB P43490; recorded IC50 was 407

Lab note: compound O=C(NCc1ccc(S(=O)(=O)c2cnc(N3CCOCC3)nc2)cn1)c1ccc2nccn2c1 [Example 167] tested on UniProtKB P43490; recorded IC50 was 23

Lab note: compound CN(C)c1ccc(S(=O)(=O)c2ccc(CNC(=O)c3ccc4nccn4c3)nc2)cn1 [Example 83] tested on UniProtKB P43490; recorded IC50 was 9.1

Lab note: compound O=C(NCc1ccc(S(=O)(=O)c2ccc(N3CCOCC3)nc2)cn1)c1cc2ccncc2o1 [Example 52] tested on UniProtKB P43490; recorded IC50 was 2

1: Cn1cc(S(=O)(=O)c2ccc(CNC(=O)N3Cc4ccncc4C3)nc2)cn1 [Example 99]
2: CN(C)c1ncc(S(=O)(=O)c2ccc(CNC(=O)N3Cc4ccncc4C3)nc2)s1 [Example 98]
Q. Of 1 and 2 , whose reported IC50 is numerically smaller? Returns: label corresponding to the selected item.
A. 2
(2: 6.6 nM, 1: 54.7 nM)

P: COc1ccc(S(=O)(=O)c2ccc(CNC(=O)c3cnc4[nH]ncc4c3)nc2)cc1OC [Example 70]
Q: O=C(NCc1ccc(S(=O)(=O)c2cccc(OC(F)(F)F)c2)cn1)c1ccc2nccn2c1 [Example 13]
Q. Of P and Q , whose reported IC50 is numerically smaller? Returns: label corresponding to the selected item.
A. Q
(Q: 8.5 nM, P: 48.5 nM)

====

Biological target: NAMPT (Homo sapiens (Human), UniProt P43490)
Sequence (P43490 whole entry): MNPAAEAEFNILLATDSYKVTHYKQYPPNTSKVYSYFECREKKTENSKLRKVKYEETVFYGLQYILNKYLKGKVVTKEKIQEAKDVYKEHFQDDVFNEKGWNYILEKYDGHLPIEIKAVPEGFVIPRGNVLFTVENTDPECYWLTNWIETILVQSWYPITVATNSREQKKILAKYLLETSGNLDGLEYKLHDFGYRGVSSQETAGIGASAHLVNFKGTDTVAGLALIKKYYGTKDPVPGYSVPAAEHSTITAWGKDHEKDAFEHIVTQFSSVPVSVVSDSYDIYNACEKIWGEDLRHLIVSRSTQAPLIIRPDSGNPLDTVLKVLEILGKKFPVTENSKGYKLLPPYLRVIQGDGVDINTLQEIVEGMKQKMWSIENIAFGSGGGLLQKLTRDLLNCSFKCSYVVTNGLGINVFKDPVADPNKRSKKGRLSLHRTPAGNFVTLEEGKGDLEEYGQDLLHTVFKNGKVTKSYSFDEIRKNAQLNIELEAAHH
Experiment: Biochemical Inhibition Assay (NAMPT enzymatic reaction, NMN quantified by mass spectrometry)
Details: 33 nM recombinant His-tagged NAMPT, 1 μM NAM, 30 min at rt
pIC50: −log10 of the molar value.
measure-name: pIC50

A: O=C(NCc1ccc([S+]([O-])c2cc(F)cc(F)c2)cn1)N1Cc2ccncc2C1 (single isomer, unassigned; enantiomer 2) [Example 160]
B: O=C(NCc1ccc([S+]([O-])C2CCN(CC(F)(F)F)CC2)cn1)c1ccc2nccn2c1 (stereo not shown) [Example 173]
C: O=C(NCc1ccc(S(=O)(=O)C2CCOCC2)cn1)c1cc2ccncc2s1 [Example 53]
D: O=C(NCc1ccc(S(=O)(=O)c2cc(F)cc(F)c2)cn1)c1cnc2[nH]ncc2c1 [Example 1]
Q. Rank descending by pIC50: all 4 compounds from above. Answer by listing the labels in the order asked for.
A. A, D, C, B

====

Target: NAMPT (Homo sapiens (Human), UniProt P43490)
Test: Biochemical Inhibition Assay (NAMPT enzymatic reaction, NMN quantified by mass spectrometry)
Conditions: 33 nM recombinant His-tagged NAMPT, 1 μM NAM, 30 min at rt
pIC50: −log10 of the molar value.
measure-name: pIC50

Sample records with pIC50:
Recorded pIC50 (compound CN(C)c1ncc(S(=O)(=O)c2ccc(CNC(=O)c3cc4ccncc4s3)nc2)s1 ): 8.66

Recorded pIC50 (compound CN(C)c1ccc(S(=O)(=O)c2ccc(CNC(=O)c3cnc4nccn4c3)nc2)cn1 ): 8.27

Recorded pIC50 (compound O=C(NCc1ccc(S(=O)(=O)c2cccc(N3CCOCC3)c2)cn1)c1cc2ccncc2o1 ): 7.66

1: CN(C)c1ccc(S(=O)(=O)c2ccc(CNC(=O)c3cnc4[nH]ncc4c3)nc2)cn1
2: O=C(NCc1ccc(S(=O)(=O)C2CCN(CC(F)(F)F)CC2)cn1)c1cnc2[nH]ncc2c1
3: O=C(NCc1ccc(S(=O)(=O)c2cccc(OC(F)(F)F)c2)cn1)N1Cc2ccncc2C1
4: O=C(NCc1ccc(S(=O)(=O)c2ccc(N3CCOCC3)cc2)cn1)c1ccc2nccn2c1
5: COc1cc(OC)cc(S(=O)(=O)c2ccc(CNC(=O)c3cnc4[nH]ncc4c3)nc2)c1
Q. Kindly order the items shown according to pIC50, from the highest value down. Answer by listing the labels in the order asked for.
A. 3, 4, 5, 1, 2
(3: 8.47, 4: 8.14, 5: 7.83, 1: 7.56, 2: 5.76)
